- ASSAY_NOTES: Pharmacokinetic study of the compounds in SD rat (intravenous injection)
- Type: in vivo, SD male rats
- ASSAY_CONTEXT: male, SD, in vivo, iv, 10 mg/kg
RECORDED_METRIC: half-life (min)
Write down the numeric answer in min and omit the unit.

## Input Name the recorded half-life for C[C@@H](O)[C@H]1C(=O)N2C(C(=O)O)=C(S[C@@H]3CN[C@H](CNS(N)(=O)=O)C3)[C@H](C)[C@H]12 [doripenem, Doripenem, reference compound] .
## Output 6.6

* * *

- Tested on: methicillin-resistant staphylococcus epidermidis (MRSE)
- ASSAY_NOTES: In vitro antibacterial activity, agar dilution method (clinical isolates)
- Type: cell-based
- ASSAY_CONTEXT: clinically isolated strains, Gram-positive, read-out: MIC90 S. epidermidis MRSE
- Description: […]
In this section we review reported MIC90 values for a set of molecules.
Give the figure together with its unit, number first.

Solved entries:
MOLECULE	MIC90
C[C@@H](O)[C@H]1C(=O)N2C(C(=O)O)=C(S[C@@H]3CN[C@H](C(=O)Nc4cccc(C(=O)O)c4)C3)[C@H](C)[C@H]12 [ertapenem, Ertapenem, reference compound]	64 µg/mL
CCN(CC)S(=O)(=O)N1CC(SC2=C(C(=O)O)N3C(=O)[C@H]([C@@H](C)O)[C@H]3[C@H]2C)C1 [Compound 7]	8 µg/mL

Here is the next item to consider.
## Input Name the recorded MIC90 for C[C@@H](O)[C@H]1C(=O)N2C(C(=O)O)=C(S[C@@H]3CN[C@H](C(=O)N(C)C)C3)[C@H](C)[C@H]12 [meropenem, Meropenem, reference compound] .
## Output 32 µg/mL

Value source: patent US20110046107A1
